- system: T1, cpHaloΔ
- T1 construct: Used as purified protein; also called original cpHaloΔ; first partial effector
- T1 sequence (chain, as listed by the source mutant): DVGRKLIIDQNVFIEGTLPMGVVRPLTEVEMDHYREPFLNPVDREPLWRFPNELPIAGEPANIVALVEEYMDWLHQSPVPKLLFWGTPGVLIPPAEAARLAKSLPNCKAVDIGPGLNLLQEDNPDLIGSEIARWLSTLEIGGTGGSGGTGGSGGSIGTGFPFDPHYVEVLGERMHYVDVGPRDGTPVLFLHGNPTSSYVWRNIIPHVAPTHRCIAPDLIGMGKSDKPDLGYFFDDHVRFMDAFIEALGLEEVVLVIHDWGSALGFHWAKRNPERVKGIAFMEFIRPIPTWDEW
- test-description: method not stated
endpoint-label: Kd (mM)
Reply numerically in mM, unit not repeated.

Bench note: what Kd did ARETFQAFRT (Residues 145-154 of HaloTag; also called original Halo-Peptide; original Hpep (10mer)) [Hpep1] show? 4.6
